Each item that follows carries a reported kinase still bound, per cent of control.
Biological target: UniProtKB P68400
Sequence (P68400 whole entry, looked up): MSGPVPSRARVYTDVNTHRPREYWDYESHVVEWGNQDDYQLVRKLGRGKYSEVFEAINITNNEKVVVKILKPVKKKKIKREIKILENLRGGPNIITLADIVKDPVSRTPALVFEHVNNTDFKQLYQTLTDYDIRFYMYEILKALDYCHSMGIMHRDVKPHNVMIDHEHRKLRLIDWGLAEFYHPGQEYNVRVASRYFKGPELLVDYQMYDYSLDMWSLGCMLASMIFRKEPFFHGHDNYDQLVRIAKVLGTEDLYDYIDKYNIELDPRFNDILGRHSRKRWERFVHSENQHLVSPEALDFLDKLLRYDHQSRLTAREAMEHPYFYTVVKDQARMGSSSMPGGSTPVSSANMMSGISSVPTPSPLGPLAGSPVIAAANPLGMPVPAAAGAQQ
Test: KINOMEscan competition binding
Conditions: compound 10.0 µM
Value expressed in %; do not type the unit.

The following compounds have reported results that may help.
N=C1NC(=O)/C(=C/c2ccc(-c3cncc4ccccc34)o2)S1 = 6.4
CS(=O)(=O)Nc1ccc(-c2cc(/C=C3\SC(=N)NC3=O)c[nH]c2=O)cc1 = 4.8
CN1C(=O)c2ccccc2N(C)c2nc(Nc3ccc(N4CCC(O)CC4)cc3)ncc21 = 86
COc1cc(N2CCC(O)CC2)ccc1Nc1ncc2c(n1)N1CCc3cccc(c31)C(=O)N2C = 100
N=C1NC(=O)/C(=C/c2ccc(-c3ccc(C(=O)Nc4ccc(N5CCNCC5)cc4)cc3O)o2)S1 = 20

Query: Report kinase still bound, per cent of control for O=C1NC(=S)S/C1=C\c1ccc(-c2cccc3ccccc23)o1 tested on UniProtKB P68400.
Reply: 8

Query: Report kinase still bound, per cent of control for O=C1NC(=O)/C(=C/c2c[nH]c(=O)c(-c3ccc(N4CCNCC4)nc3)c2)S1 tested on UniProtKB P68400.
Reply: 0.65

Query: Report kinase still bound, per cent of control for CN1C(=O)[C@H]2CCC[C@H]2N(C2CCCC2)c2nc(Nc3ccc(C(N)=O)cc3)ncc21 tested on UniProtKB P68400.
Reply: 25

###

Test system: FLT3 (human), P36888 [N841I]
Assay: KINOMEscan competition binding
Settings: compound 10.0 µM
Each item that follows carries a reported kinase still bound, per cent of control.

The following compounds have reported results that may help.
COc1cc(N2CCN(C)CC2)ccc1Nc1ncc2c(n1)Nc1ccccc1NC2=O = 25%
CS(=O)(=O)Nc1ccc(-c2cc(/C=C3\SC(=N)NC3=O)c[nH]c2=O)cc1 = 30%
COc1cc(N2CCC(O)CC2)ccc1Nc1ncc2c(n1)N1CCc3cccc(c31)C(=O)N2C = 93%
CN1CCN(c2ccc(C(=O)Nc3ncc4c(n3)N(C)c3ccccc3C(=O)N4C)cc2)CC1 = 78%

Query: // returns reported kinase still bound, per cent of control for input CS(=O)(=O)Nc1ccc(-c2cncc(/C=C3\SC(=N)NC3=O)c2)cc1
Reply: 28%

###

Target: PIK3CB (human) (UniProt P42338)
Sequence (P42338 whole entry, looked up): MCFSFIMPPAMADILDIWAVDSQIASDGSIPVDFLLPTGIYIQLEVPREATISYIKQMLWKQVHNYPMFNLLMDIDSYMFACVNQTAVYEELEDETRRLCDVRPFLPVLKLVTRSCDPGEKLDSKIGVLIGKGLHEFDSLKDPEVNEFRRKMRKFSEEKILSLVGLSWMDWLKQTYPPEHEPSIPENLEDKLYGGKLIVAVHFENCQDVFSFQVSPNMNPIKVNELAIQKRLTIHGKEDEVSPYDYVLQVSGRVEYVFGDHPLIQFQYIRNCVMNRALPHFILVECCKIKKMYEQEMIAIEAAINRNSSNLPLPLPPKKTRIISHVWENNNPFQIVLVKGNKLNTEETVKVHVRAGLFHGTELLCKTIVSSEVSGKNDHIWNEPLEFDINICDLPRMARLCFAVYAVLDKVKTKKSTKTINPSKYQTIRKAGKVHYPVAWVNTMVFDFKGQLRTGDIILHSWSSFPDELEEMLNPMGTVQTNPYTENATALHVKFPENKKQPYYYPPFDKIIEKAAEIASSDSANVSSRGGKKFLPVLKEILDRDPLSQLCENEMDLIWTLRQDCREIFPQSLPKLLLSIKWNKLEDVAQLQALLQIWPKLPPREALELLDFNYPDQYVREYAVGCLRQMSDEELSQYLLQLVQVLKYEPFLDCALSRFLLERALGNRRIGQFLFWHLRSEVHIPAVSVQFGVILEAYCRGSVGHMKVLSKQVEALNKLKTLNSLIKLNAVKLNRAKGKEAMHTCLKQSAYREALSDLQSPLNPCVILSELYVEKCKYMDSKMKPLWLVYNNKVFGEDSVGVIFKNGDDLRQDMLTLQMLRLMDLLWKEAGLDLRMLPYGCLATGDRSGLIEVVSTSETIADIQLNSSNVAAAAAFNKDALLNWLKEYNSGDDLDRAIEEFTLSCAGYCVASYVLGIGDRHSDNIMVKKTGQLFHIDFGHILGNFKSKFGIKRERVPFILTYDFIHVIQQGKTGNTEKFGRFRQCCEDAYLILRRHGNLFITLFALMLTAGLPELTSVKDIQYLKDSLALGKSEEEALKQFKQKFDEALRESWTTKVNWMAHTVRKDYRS
Test: KINOMEscan competition binding
Details: compound 10.0 µM
Each item that follows carries a reported kinase still bound, per cent of control.
Field note: include the unit after the figure.

COc1cc(N2CCC(O)CC2)ccc1Nc1ncc2c(n1)N1CCc3cccc(c31)C(=O)N2C = 92%

Query: // returns reported kinase still bound, per cent of control for input O=C1NC(=O)/C(=C/c2cc(-c3ccc(N4CCNCC4)nc3)c[nH]c2=O)S1
Reply: 6.2%

Query: // returns reported kinase still bound, per cent of control for input NS(=O)(=O)c1ccc(-c2ccc(/C=C3\SC(=O)NC3=O)o2)cc1
Reply: 31%

Query: // returns reported kinase still bound, per cent of control for input N=C1NC(=O)/C(=C/c2ccc(-c3cccc4cc[nH]c34)o2)S1
Reply: 4.5%

Query: // returns reported kinase still bound, per cent of control for input CN1C(=O)c2ccccc2N(C)c2nc(NS(=O)(=O)c3ccc(N)cc3)ncc21
Reply: 100%

Query: // returns reported kinase still bound, per cent of control for input O=C1NC(=O)/C(=C/c2c[nH]c(=O)c(-c3ccc(N4CCNCC4)nc3)c2)S1
Reply: 4.8%

Query: // returns reported kinase still bound, per cent of control for input CS(=O)C1=NC(=O)/C(=C/c2ccc(-c3ccc(S(N)(=O)=O)cc3)o2)S1 (centres undefined)
Reply: 31%

Query: // returns reported kinase still bound, per cent of control for input NS(=O)(=O)c1ccc(-c2ccc(/C=C3\SC(=S)N(CC(=O)O)C3=O)o2)cc1
Reply: 29%

Query: // returns reported kinase still bound, per cent of control for input COc1cc(N2CCN(C)CC2)ccc1Nc1ncc2c(n1)N(C)c1ccccc1N(C)C2=O
Reply: 83%
